System tested: UniProtKB P19099
Sequence (P19099 25-503): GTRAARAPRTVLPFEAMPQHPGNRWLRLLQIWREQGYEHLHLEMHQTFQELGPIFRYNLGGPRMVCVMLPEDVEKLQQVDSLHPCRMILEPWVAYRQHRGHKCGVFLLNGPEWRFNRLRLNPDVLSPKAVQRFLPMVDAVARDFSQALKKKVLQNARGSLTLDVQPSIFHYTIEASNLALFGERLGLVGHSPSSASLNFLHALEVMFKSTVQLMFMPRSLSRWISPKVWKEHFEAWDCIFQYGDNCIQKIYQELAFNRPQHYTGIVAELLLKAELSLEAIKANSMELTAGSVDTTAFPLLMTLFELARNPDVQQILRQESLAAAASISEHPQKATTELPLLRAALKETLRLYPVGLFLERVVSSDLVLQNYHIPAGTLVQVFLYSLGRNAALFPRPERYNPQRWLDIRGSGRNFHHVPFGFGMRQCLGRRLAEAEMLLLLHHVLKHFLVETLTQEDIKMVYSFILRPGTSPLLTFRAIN
Method summary: aldosterone production by cells expressing the recombinant enzyme
Property: Ki (nM)

- CCC(=O)N[C@@H]1CCCc2c(-c3ccc4c(c3)CCC(=O)N4C)cncc21: 13
